target: Bifunctional epoxide hydrolase 2 (Homo sapiens, UniProt P34913); assay: Inhibition of soluble epoxide hydrolase by fluorescence assay
Sequence (P34913 whole entry): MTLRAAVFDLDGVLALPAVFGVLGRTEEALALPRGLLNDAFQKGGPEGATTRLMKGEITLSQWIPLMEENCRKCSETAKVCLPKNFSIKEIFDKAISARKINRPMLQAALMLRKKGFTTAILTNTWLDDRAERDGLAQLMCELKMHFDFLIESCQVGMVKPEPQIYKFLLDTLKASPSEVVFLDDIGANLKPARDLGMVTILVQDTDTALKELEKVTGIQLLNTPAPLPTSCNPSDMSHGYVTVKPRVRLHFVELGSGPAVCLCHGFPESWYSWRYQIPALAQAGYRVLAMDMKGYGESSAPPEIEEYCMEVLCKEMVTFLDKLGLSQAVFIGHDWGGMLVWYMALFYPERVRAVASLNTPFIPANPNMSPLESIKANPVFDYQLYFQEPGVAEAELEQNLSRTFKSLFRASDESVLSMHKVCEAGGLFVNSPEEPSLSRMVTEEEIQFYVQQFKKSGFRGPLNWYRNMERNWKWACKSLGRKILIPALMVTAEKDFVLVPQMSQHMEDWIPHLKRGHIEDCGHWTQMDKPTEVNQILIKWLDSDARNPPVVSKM
Quantity measured: pIC50
Remember the convention: pIC50 equals -log10 of concentration in molar.

INSERT INTO measurements (smiles_string, quantity_measured, value_reported) VALUES
  ('CN1CCN(C(=O)c2cccc(NC(=O)Nc3ccc(C(F)(F)F)cc3)c2)CC1', 'pIC50', 7.92),
  ('O=C(Nc1ccc(OC(F)(F)F)cc1)Nc1ccc(C(=O)NCCN2CCOCC2)cc1', 'pIC50', 8.70),
  ('COCCNC(=O)c1ccc(NC(=O)NC23CC4CC(CC(C4)C2)C3)cc1', 'pIC50', 7.27),
  ('COCCNC(=O)c1cccc(NC(=O)NC23CC4CC(CC(C4)C2)C3)c1', 'pIC50', 6.96);

Query: Fill in: pIC50 of CC(C)N1CCN(S(=O)(=O)c2ccc(NC(=O)Nc3ccc(C(F)(F)F)cc3)cc2)CC1 is ___
Reply: 8.30
